# target-system: MDM2/P53 (Homo sapiens, UniProt Q00987)
# Sequence (Q00987 whole entry): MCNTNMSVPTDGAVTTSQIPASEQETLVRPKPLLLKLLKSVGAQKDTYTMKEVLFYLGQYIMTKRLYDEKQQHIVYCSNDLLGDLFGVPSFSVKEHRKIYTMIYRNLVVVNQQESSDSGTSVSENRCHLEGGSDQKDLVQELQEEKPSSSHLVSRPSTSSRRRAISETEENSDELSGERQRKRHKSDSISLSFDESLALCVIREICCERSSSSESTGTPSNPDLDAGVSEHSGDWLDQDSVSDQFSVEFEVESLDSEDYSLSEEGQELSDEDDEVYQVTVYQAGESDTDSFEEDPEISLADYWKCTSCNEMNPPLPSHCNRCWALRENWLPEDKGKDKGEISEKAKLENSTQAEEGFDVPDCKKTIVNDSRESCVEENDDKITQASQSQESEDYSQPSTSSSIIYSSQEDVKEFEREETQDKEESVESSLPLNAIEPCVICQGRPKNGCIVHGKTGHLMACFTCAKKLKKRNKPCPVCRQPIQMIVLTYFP
# experimental-protocol: biochemical
reported-endpoint: IC50 (µM)

compound	quantitative-readout
CN1C(=O)/C(=C\c2ccc(-c3ccc(Cl)cc3)o2)SC1=S	1.21

[a] CN1C(=O)/C(=C/c2ccc(-c3cccc4ccccc34)o2)SC1=S
[b] O=C1/C(=C/c2ccc(-c3cccc([N+](=O)[O-])c3)o2)SC(=S)N1CC1CCCO1 (stereo not drawn)
Query: Lower value for measured IC50? Options: a , b Mark your answer with the label of the selected entry.
Reply: a
(a: 6.1 µM, b: 24.8 µM)
